B1: library; a variant is named by its letters at N, in order (parent)
chain: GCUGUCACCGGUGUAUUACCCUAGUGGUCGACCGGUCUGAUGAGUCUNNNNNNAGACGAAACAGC

- Variants of: B1
- test: normalized RNA/DNA level without ligand (relative to sTRSVctl = 100) (log10 (% of sTRSVctl)); ligand: hypoxanthine (xanthine aptamer); higher = less ribozyme self-cleavage, higher mRNA level
- particulars: HEK293T, reporter: mCherry (pCS4076), ligand present: no
property-name: normalized RNA/DNA level without ligand (log10)
Answer with the value's number alone.

AGCCAU | 1.78
CUAGAC | 1.83
GCGGGG | 1.56

Query: Returns the measured normalized RNA/DNA level without ligand (log10) for the input variant. Input: CGACCA
Reply: 1.85

Query: normalized RNA/DNA level without ligand (log10) lookup needed for UGAAAC , thanks.
Reply: 1.81

Where do the numbers come from? From the supplement of paper PMC6757056.
